Origin of the recorded values: PubChem BioAssay (NCI)

- Tested on: SK-MEL-2 melanoma
- experiment: NCI tumour cell line growth inhibition, 48 h
resultType: TGI (µM)
# unit: µM | format: bare number

[
  {
    "compound": "O=C(Nc1ccccc1/C=C/c1n[nH]c2ccccc12)c1ccccc1",
    "experimentalTarget": "SK-MEL-2 melanoma",
    "TGI (µM)": 16.5
  }
]

Would you kindly share the measured TGI for O=C1CC(Nc2ccccc2)c2c(Cl)sc(Cl)c21 (stereo not given) ? 4.37

* * *

- Tested on: DU-145 prostate
- experiment: NCI tumour cell line growth inhibition, 48 h
In this section, each of the molecules is paired with its reported TGI.

Before answering, review these 5 worked examples.
[
  {
    "molecule": "Fc1ccc(/C=C2\\COCC3=C2NC(=S)NC3c2ccc(F)cc2)cc1 (stereo not given)",
    "experimentalTarget": "DU-145 prostate",
    "TGI": "77.3 µM"
  },
  {
    "molecule": "Clc1ccc(NCNC2Nc3ccccc3N2)cc1Cl",
    "experimentalTarget": "DU-145 prostate",
    "TGI": "> 100 µM"
  },
  {
    "molecule": "CCOC(=O)c1sc2nc(=S)[nH]c(NC(N)=S)c2c1C",
    "experimentalTarget": "DU-145 prostate",
    "TGI": "39.4 µM"
  },
  {
    "molecule": "C#CCOC(=O)C=[N+]=[N-]",
    "experimentalTarget": "DU-145 prostate",
    "TGI": "> 10 µM"
  },
  {
    "molecule": "O=C(O)c1c2c(c(O)c3c1CN(C1CCCCC1)CO3)OCN(C1CCCCC1)C2",
    "experimentalTarget": "DU-145 prostate",
    "TGI": "> 100 µM"
  }
]

Would you kindly share the measured TGI for "CCCCCCc1cc2cc(C(=O)Nc3nc(C45CC6CC(CC(C6)C4)C5)cs3)c(=O)oc2cc1O" ? > 100 µM

Would you kindly share the measured TGI for "CCN(Cc1ccccc1)c1ccc(/C=C2\COc3ccccc3C2=O)cc1" ? > 1000 µM

Would you kindly share the measured TGI for O=C1CC(Nc2ccccc2)c2c(Cl)sc(Cl)c21 (stereo not given) ? 3 µM

Would you kindly share the measured TGI for "COc1cc(OC)c(OC)cc1/C=C/c1ccccn1" ? > 10 µM

Would you kindly share the measured TGI for CCCCCCCCCCCCCOCCOCCOCCCCC(O)CCCCCCCCCC1=C[C@H](C)OC1=O (stereo not given in full) ? 66.3 µM

Would you kindly share the measured TGI for "O=C(O)CSC1=NCCN1" ? > 100 µM

Would you kindly share the measured TGI for CC(C)(C)OC(=O)C1C(=O)NC(=O)CC1C(OCc1ccccc1)C(OCc1ccccc1)C(COCc1ccccc1)OCc1ccccc1 (stereo not given) ? > 100 µM

Would you kindly share the measured TGI for "O=C1c2cccnc2S(=O)(=O)N1c1ccc(Br)cc1" ? > 100 µM

Would you kindly share the measured TGI for "CN1CCN(c2cc(F)c(NC3=C(Cl)C(=O)c4ncccc4C3=O)c(F)c2)CC1" ? 2.94 µM

* * *

- System: MALME-3M melanoma
- experiment: NCI tumour cell line growth inhibition, 48 h; in the data active = GI50 below about 0.43 µM; inactive = the rest
Respond with a class label; see True (active), False (inactive)

[
  {
    "lineNotation": "CCOC(=O)c1sc2nc(=S)[nH]c(NC(N)=S)c2c1C",
    "discreteLabel": "False"
  }
]

Field: next compound
How did this test come out for "COc1cc(-c2csc(NC(=O)Nc3ccc(Cl)cc3)n2)cc(OC)c1OC" ? False
